- Test system: H9 cells (Homo sapiens)
- Assay Procedure: Cytotoxicity against human H9 cells after 4 days
- Assay Setup: Homo sapiens, H9, 96 h; read-out: IC50
Readout Label: IC50 (µg/mL)

>>> measured_value("C[C@@H]1CC[C@]2(C(=O)O)CC[C@]3(C)C(=CC[C@@H]4[C@@]5(C)[C@H](O)C(=O)[C@H](O)C(C)(C)[C@@H]5CC[C@]43C)[C@@H]2[C@]1(C)O")
40
>>> measured_value("CC[C@@](C)(CC(=O)O)CC(=O)O[C@H]1CC[C@]2(C)[C@H]3CC=C4[C@@H]5CC(C)(C)CC[C@]5(C(=O)O)CC[C@@]4(C)[C@]3(C)CC[C@H]2C1(C)C")
4.4
>>> measured_value("C[C@H]1[C@H](C)CC[C@]2(C(=O)O)CC[C@]3(C)C(=CC[C@@H]4[C@@]5(C)CC[C@H](O)C(C)(C)[C@@H]5CC[C@]43C)[C@H]12")
6.5
>>> measured_value("C[C@@H]1CC[C@]2(C(=O)O)CC[C@]3(C)C(=CC[C@@H]4[C@@]5(C)C[C@@H](O)[C@H](O)C(C)(C)[C@@H]5CC[C@]43C)[C@@H]2[C@]1(C)O")
15
>>> measured_value("C[C@@H](CC(=O)O)CC(=O)O[C@H]1CC[C@]2(C)[C@H]3CC=C4[C@@H]5CC(C)(C)CC[C@]5(C(=O)O)CC[C@@]4(C)[C@]3(C)CC[C@H]2C1(C)C")
27.5
>>> measured_value("C[C@H]1[C@H](C)CC[C@]2(C(=O)O)CC[C@]3(C)C(=CC[C@@H]4[C@@]5(C)C[C@@H](O)[C@H](O)C(C)(C)[C@@H]5CC[C@]43C)[C@H]12")
8

Origin of measurements: ChEMBL document CHEMBL1150942
